Quick reference for EC50 among some substances
MEASURED_TARGET: human GLP-1 receptor (hGLP-1R) (Homo sapiens)
Construct: expressed in transfected cells
Sequence (P43220 24-463): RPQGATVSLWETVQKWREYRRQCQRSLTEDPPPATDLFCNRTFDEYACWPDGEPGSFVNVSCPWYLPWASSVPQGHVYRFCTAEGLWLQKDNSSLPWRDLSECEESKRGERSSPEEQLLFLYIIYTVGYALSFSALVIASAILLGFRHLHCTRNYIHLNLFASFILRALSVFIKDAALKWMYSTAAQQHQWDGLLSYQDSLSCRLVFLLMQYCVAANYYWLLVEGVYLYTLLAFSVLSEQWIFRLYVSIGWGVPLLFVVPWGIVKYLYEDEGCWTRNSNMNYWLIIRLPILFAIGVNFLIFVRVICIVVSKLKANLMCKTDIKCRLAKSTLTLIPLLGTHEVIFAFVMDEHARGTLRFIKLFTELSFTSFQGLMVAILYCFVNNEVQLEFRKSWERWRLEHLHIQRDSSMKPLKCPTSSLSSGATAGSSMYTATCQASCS
METHOD_NOTES: GLP-1 receptor assay, method A (CRE-luciferase reporter, BHK cells)
Format: cell-based
CONDITIONS: method A, absence of HSA; read-out: hGLP-1R Potency, no HSA, EC50
Numbered stars: 1 amine (or outer) side, 2 acyl side, 3 side chain; on linkers, the order of the positions; unused ones are H or OH. Square brackets hold non-standard residues; d marks the D form. Side chains are listed from the residue outwards. * marks the point of attachment. C18 diacid = O=C(O)CCCCCCCCCCCCCCCCC(=O)*; γGlu = O=C(O)[C@H](CCC(=O)[*:2])N[*:1]; AEEA = NCCOCCOCC(=O)O; Aib = CC(C)(N)C(=O)O
OBSERVED_PROPERTY: EC50 (pM)

SUBSTANCE | VAL
H[Aib]HGTFTSDYSILLEEQAAREFIEWLLAGGPSSGEASHLSTAQTQRLSAELHRLK([AEEA-AEEA-γGlu-C18 diacid])TLPRTETGSGSP-NH2 [Compound 83] | 2.3
H[Aib]HGTFTSDYSILLEEQAAREFIEWLLAGGPSSGEASHLSTAQTQRLSAELHK([AEEA-AEEA-γGlu-C18 diacid])LATLPRTETGSGAP-NH2 [Compound 85] | 3.52
H[Aib]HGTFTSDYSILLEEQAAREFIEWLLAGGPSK([AEEA-AEEA-γGlu-C18 diacid])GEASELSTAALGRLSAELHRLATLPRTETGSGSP-NH2 [Compound 25] | 2.87

###

MEASURED_TARGET: human amylin receptor (hAMYR3) (Homo sapiens, UniProt O60896+P30988)
Construct: host or cells: BHK cells (Hollex-1 line expressing hCTR(a) and CRE-Luc), further transfected with human RAMP3
Sequence (P30988 25-474): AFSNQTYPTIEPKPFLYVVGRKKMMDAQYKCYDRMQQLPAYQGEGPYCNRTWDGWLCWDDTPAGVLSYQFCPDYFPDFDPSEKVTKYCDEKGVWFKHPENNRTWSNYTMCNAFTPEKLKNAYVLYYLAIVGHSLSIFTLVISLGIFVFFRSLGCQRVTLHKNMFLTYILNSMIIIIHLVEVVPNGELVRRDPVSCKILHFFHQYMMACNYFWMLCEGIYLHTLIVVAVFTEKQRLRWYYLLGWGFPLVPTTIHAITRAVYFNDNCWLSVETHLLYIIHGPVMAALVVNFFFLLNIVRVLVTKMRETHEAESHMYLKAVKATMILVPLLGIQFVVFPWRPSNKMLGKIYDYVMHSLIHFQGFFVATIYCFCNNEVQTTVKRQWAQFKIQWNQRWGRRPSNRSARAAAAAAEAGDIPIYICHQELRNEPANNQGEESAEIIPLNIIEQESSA
Sequence (O60896 24-148): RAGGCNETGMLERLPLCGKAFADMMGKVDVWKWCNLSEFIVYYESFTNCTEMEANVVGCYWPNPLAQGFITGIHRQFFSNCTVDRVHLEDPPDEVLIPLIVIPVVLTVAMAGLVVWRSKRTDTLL
METHOD_NOTES: Amylin receptor assay, method A (CRE-luciferase reporter, BHK cells)
Type: cell-based
CONDITIONS: hAMYR3 Potency, 1% HSA, EC50, method A, in the presence of 1% HSA
Numbered stars: 1 amine (or outer) side, 2 acyl side, 3 side chain; on linkers, the order of the positions; unused ones are H or OH. Square brackets hold non-standard residues; d marks the D form. Side chains are listed from the residue outwards. * marks the point of attachment. C20 diacid = O=C(O)CCCCCCCCCCCCCCCCCCC(=O)*; C18 diacid = O=C(O)CCCCCCCCCCCCCCCCC(=O)*; C16 diacid = O=C(O)CCCCCCCCCCCCCCC(=O)*; γGlu = O=C(O)[C@H](CCC(=O)[*:2])N[*:1]; AEEA = NCCOCCOCC(=O)O; Aib = CC(C)(N)C(=O)O
Grouping rule (EC50): low range = under 0.05 nM, mid range = from 0.05 nM up to 0.1 nM, high range = 0.1 nM and over

SUBSTANCE | LABEL_VALUE
H[Aib]HGTFTSDYSILLEEQAAREFIEWLLAGGPSSGALQAPGQAPLASHLSTAQTARLSAELHK([AEEA-AEEA-γGlu-C18 diacid])LATLPRTETGSGSP-NH2 [Compound 108] | mid range
H[Aib]HGTFTSDYSILLEEQAAREFIEWLLAGGPSSGALQAPGQAPGASHLSTAQTARLSAELHRLK([AEEA-AEEA-γGlu-C18 diacid])TLPRTETGSGSP-NH2 [Compound 106] | low range
H[Aib]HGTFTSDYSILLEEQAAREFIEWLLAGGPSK([AEEA-AEEA-γGlu-C16 diacid])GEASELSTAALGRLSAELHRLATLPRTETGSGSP-NH2 [Compound 17] | low range
Y[Aib]EGTFTSDYSILLEEQAAREFIEWLLAGGPSSGALAQTLAQTLASHLSTAQTQRLSAELHK([AEEA-AEEA-γGlu-C20 diacid])LATLPRTETGSGSP-NH2 [Compound 60] | high range
Y[Aib]EGTFTSDYSILLEEQAAREFIEWLLAGGPSSGAGQAPGASHLSTAQTQRLSAELHK([AEEA-AEEA-γGlu-C18 diacid])LATLPRTETGSGSP-NH2 [Compound 97] | high range
H[Aib]HGTFTSDYSILLEEQAAREFIEWLLAGGPSSGEASHLSTAQTQRLSAK([AEEA-AEEA-γGlu-C18 diacid])LHRLATLPRTETGSGSP-NH2 [Compound 82] | low range
H[Aib]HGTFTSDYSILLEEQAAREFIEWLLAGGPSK([AEEA-AEEA-γGlu-C18 diacid])GEASQLSTAALGRLSAELHGLATLPRTETGSGSP-NH2 [Compound 65] | high range
H[Aib]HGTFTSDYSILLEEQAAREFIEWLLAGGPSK([AEEA-AEEA-γGlu-C18 diacid])GAGQAPGQAPGASHLSTAQTQRLSAELHELATLPRTETGSGSP-NH2 [Compound 47] | mid range
Y[Aib]EGTFTSDYSILLEEQAAREFIEWLLAGGPSSGAGQAPGQAPGASHLSTAALARLSAELHK([AEEA-AEEA-γGlu-C18 diacid])LATLPRTETGSGSP-NH2 [Compound 114] | low range
Y[Aib]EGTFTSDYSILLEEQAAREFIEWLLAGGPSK([AEEA-AEEA-γGlu-C18 diacid])GEASELSTAALGRLSAELHELATLPRTETGSGSP-NH2 [Compound 26] | high range
Y[Aib]EGTFTSDYSILLEEQAAREFIEWLLAGGPSRGEASHLSTAQTQRLSAELHK([AEEA-AEEA-γGlu-C18 diacid])LATLPRTETGSGSP-NH2 [compound 68] | high range
H[Aib]HGTFTSDYSILLEEQAAREFIEWLLAGGPSSGALAQTLAQTLASHLSTAQTQRLSAELHK([AEEA-AEEA-γGlu-C18 diacid])LATLPRTETGSGSP-NH2 [Compound 51] | mid range
